Target: Cyclic GMP-AMP synthase (Homo sapiens, UniProt Q8N884)
Sequence (Q8N884 whole entry): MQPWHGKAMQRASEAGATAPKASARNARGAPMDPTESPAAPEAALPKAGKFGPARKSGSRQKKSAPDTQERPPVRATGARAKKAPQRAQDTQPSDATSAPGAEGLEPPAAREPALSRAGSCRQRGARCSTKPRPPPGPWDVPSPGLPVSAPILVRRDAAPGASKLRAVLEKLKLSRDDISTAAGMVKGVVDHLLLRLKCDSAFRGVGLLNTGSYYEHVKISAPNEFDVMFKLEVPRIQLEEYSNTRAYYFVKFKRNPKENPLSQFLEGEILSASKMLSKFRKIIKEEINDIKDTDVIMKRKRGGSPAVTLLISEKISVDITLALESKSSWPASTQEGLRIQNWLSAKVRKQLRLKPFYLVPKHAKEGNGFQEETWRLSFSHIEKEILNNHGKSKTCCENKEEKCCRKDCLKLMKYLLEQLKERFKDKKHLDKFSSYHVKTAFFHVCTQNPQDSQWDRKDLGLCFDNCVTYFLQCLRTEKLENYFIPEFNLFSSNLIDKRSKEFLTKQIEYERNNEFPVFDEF
Test: Ratio of IC50 for inhibition of cGAS in human THP-1 cells using cGAMP as substrate to IC50 for inhibition of cGAS in human THP-1 cells expressed in baculovirus infected insect cells
Assign Ratio IC50 to each entry below.
# output: bare number, no unit

Case `C[C@H]1CN2CC[C@@H]1n1c(nc3ccccc31)O[C@H]1C[C@@H](C(=O)O)N(C1)c1nc(nc3c1oc1ccccc13)CCCCCN(C)C2=O` , Cyclic GMP-AMP synthase (Homo sapiens, UniProt Q8N884), Ratio IC50 recorded as 15

Case `Cc1cccc2c1nc1n2[C@@H]2CCN(C[C@H]2C)C(=O)CCCCCC(F)(F)c2nc(c3oc4ccccc4c3n2)N2C[C@H](C[C@H]2C(=O)O)O1` , Cyclic GMP-AMP synthase (Homo sapiens, UniProt Q8N884), Ratio IC50 recorded as 33

Case `C[C@H]1CN2CC[C@@H]1n1c(nc3cc(Cl)ccc31)O[C@H]1C[C@@H](C(=O)O)N(C1)c1nc(nc3c1oc1cc(Cl)ccc13)CCOCCCC2=O` , Cyclic GMP-AMP synthase (Homo sapiens, UniProt Q8N884), Ratio IC50 recorded as 3930

Case `C[C@H]1CN2CC[C@@H]1n1c(nc3ccccc31)O[C@H]1C[C@@H](C(=O)O)N(C1)c1nc(nc3c1oc1ccccc13)C(F)(F)CCCCC(F)(F)C2=O` , Cyclic GMP-AMP synthase (Homo sapiens, UniProt Q8N884), Ratio IC50 recorded as 519

Case `C[C@@H]1CN2CC[C@H]1n1c(nc3ccccc31)O[C@H]1C[C@@H](C(=O)O)N(C1)c1nc(nc3c1oc1ccccc13)CCCCCOC2=O` , Cyclic GMP-AMP synthase (Homo sapiens, UniProt Q8N884), Ratio IC50 recorded as 45

Case `C[C@H]1CN2CC[C@H]1n1c(nc3ccccc31)O[C@H]1C[C@@H](C(=O)O)N(C1)c1nc(nc3c1oc1ccccc13)C(F)(F)COCCCCC2=O` , Cyclic GMP-AMP synthase (Homo sapiens, UniProt Q8N884), Ratio IC50 recorded as 32100

* * *

Target: UniProt:Q8N884
Experiment: Inhibition of cGAS in human THP-1 cells expressed in baculovirus infected insect cells incubated for 18 hrs by Lucia luciferase reporter assay
Assign IC50 to each entry below.
# number only, unit nM dropped from output

Case `C[C@H]1CN2CC[C@@H]1n1c(nc3ccccc31)O[C@H]1C[C@@H](C(=O)O)N(C1)c1nc(nc3c1oc1cc(Cl)ccc13)C(F)(F)CCCOCC2=O` , UniProt:Q8N884, IC50 recorded as 1.5

Case `C[C@H]1CN2CC[C@@H]1n1c(nc3cc(Cl)ccc31)O[C@H]1C[C@@H](C(=O)O)N(C1)c1nc(nc3c1oc1ccccc13)C(F)(F)OCCCCC2=O` , UniProt:Q8N884, IC50 recorded as 3.1

Case `C[C@H]1CN2CC[C@@H]1n1c(nc3ccccc31)O[C@H]1C[C@@H](C(=O)O)N(C1)c1nc(nc3c1oc1ccccc13)CCCCCN(C)C2=O` , UniProt:Q8N884, IC50 recorded as 500

Case `C[C@H]1CN2CC[C@@H]1n1c(nc3ccccc31)O[C@H]1C[C@@H](C(=O)O)N(C1)c1nc(nc3c1oc1ccccc13)C(F)(F)CCCCC(F)(F)C2=O` , UniProt:Q8N884, IC50 recorded as 13
